This section lists IC50 readings for KIT (Homo sapiens, UniProt P10721).
Measured attribute: IC50 (µM)

Chemical structure	Target	Endpoint value
O=C(NCc1cccs1)c1cc2n(c1)CCc1c(NC(=O)c3ccco3)n[nH]c1-2	KIT (Homo sapiens, UniProt P10721)	0.85
C=CCNC(=O)c1cc2n(c1)CCc1c(NC(=O)c3ccccc3C)n[nH]c1-2	KIT (Homo sapiens, UniProt P10721)	5.03
CN1CCN(c2ccc(C(=O)Nc3n[nH]c4c3CCn3cc(C(=O)N(C)C)cc3-4)cc2)CC1	KIT (Homo sapiens, UniProt P10721)	4.47
O=C(NCC1CC1)c1cc2n(c1)CCc1c(NC(=O)c3ccccc3Cl)n[nH]c1-2	KIT (Homo sapiens, UniProt P10721)	1.83

(1) O=C(NCCN1CCCC1)c1cc2n(c1)CCc1c(NC(=O)c3ccccc3Cl)n[nH]c1-2
(2) O=C(Nc1n[nH]c2c1CCn1cc(C(=O)N3CCCC3)cc1-2)c1ccccc1F
I'd appreciate it if you could identify which of 1 and 2 has the greater IC50. Answer by stating the label of the chosen item.
2

---

# Target: UniProt P43405
Measured attribute: pIC50
Convention used: pIC50 is expressed as -log10 of the molar concentration.

Query for UniProt P43405: what pIC50 does the record show for `CC(C)(C)C(=O)Nc1n[nH]c2c1CCCn1cc(C(=O)N3CCC(N4CCCCC4)CC3)cc1-2` ?
6.32

---

# Target: FGFR1 (Homo sapiens)
# Sequence (P11362 22-822): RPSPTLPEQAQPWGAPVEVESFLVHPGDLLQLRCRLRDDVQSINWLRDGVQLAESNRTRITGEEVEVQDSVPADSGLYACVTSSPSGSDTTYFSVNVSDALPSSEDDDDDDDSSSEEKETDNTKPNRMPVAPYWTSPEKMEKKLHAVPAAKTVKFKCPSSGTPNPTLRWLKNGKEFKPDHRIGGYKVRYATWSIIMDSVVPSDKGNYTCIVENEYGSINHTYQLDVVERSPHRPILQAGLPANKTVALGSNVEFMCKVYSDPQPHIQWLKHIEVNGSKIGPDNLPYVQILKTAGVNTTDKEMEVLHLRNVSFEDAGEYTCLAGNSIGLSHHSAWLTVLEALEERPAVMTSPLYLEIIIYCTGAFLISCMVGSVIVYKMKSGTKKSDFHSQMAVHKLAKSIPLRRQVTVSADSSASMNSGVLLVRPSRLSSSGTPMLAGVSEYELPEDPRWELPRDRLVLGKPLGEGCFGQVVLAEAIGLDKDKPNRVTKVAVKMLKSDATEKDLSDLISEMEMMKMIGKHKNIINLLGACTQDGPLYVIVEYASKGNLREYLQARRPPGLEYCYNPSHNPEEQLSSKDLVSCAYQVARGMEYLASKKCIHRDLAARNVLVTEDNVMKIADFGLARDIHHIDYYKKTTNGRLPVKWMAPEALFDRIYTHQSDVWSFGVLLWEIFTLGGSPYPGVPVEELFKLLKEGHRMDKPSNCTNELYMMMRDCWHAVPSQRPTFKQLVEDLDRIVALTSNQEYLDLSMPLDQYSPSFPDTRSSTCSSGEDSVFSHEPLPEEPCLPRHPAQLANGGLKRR
Measured attribute: IC50 (µM)
The figure you give is taken to be in µM; do not add the unit.

Requested read-out: IC50. Entry: `O=C(NCCN1CCCC1)c1cc2n(c1)CCc1c(NC(=O)c3ccccc3Cl)n[nH]c1-2`
7.27

---

# Target: UniProt:Q13882
# Sequence (Q13882 whole entry): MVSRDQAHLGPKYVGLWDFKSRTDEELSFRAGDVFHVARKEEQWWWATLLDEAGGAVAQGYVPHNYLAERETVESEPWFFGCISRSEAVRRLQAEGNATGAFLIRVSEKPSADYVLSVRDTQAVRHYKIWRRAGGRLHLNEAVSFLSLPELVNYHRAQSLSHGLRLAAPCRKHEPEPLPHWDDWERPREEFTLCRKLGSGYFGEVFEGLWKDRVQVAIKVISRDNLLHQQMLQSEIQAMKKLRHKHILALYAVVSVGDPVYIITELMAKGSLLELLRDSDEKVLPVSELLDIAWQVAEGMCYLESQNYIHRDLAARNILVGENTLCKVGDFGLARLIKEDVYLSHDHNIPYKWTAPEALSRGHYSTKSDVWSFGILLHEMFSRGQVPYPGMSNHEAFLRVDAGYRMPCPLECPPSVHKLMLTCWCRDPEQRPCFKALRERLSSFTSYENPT
# Procedure text: Kinase inhibition assay, IC50 (Table A)
# Type: biochemical
# Settings: Enzyme BRK
pIC50: −log10 of the molar value.
Measured attribute: pIC50

Chemical structure	Target	Endpoint value
Cc1ccccc1C(=O)Nc1n[nH]c2c1CCn1cc(C(=O)N3CCC(N4CCCCC4)CC3)cc1-2	UniProt:Q13882	5.30

(P) O=C(NCC1CC1)c1cc2n(c1)CCc1c(NC(=O)c3ccccc3Cl)n[nH]c1-2
(Q) O=C(Nc1n[nH]c2c1CCn1cc(C(=O)N3CCC(N4CCCCC4)CC3)cc1-2)c1ccccc1Cl
I'd appreciate it if you could identify which of P and Q has the greater pIC50. Answer by stating the label of the chosen item.
Q
(Q: 6.07, P: 5.36)

---

Target protein (sequence): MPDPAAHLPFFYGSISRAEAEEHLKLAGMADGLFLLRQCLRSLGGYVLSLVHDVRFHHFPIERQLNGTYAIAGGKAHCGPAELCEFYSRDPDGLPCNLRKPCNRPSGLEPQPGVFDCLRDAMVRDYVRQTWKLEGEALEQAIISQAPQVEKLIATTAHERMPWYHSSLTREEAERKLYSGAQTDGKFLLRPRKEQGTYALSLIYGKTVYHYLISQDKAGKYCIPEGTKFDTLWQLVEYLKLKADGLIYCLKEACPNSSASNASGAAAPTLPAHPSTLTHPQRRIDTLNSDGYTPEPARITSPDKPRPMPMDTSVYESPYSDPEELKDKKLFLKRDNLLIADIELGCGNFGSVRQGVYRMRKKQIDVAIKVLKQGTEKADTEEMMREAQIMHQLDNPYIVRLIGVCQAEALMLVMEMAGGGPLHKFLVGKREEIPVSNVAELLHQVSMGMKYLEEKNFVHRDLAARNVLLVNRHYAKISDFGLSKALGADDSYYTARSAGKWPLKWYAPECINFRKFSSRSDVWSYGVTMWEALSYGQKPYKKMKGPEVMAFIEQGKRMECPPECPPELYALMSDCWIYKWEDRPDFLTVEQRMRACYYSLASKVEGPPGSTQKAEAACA
pIC50: −log10 of the molar value.
Measured attribute: pIC50

Below, each entry is followed by its recorded pIC50 result.
Compound	pIC50
Cc1ccc(C(=O)Nc2n[nH]c3c2CCCn2cc(C(=O)N4CCCC4)cc2-3)cc1F [Example A30-M2-B8]	6.23
CCN1CCN(C(=O)c2cc3n(c2)CCCc2c(NC(=O)c4cc(C)cc(C)c4)n[nH]c2-3)CC1 [Example A24-M2-B37]	5.94

(P) CC(C)(C)C(=O)Nc1n[nH]c2c1CCCn1cc(C(=O)N3CCC(N4CCCCC4)CC3)cc1-2 [Example A33-M2-B34]
(Q) CCS(=O)(=O)Nc1n[nH]c2c1CCCn1cc(C(=O)NCCOC)cc1-2 [Example A42-M2-B33]
I'd appreciate it if you could identify which of P and Q has the greater pIC50. Answer by stating the label of the chosen item.
P
(P: 6.14, Q: 5.74)

Each recorded value in this set is attributed to patent US9127015B2.
